# assayed-system: T1, Human Alpha-1 antitrypsin (AAT) (human, UniProt P01009 25-418)
# T1 construct: Pure AAT in buffer, as used in the isotherm and breakthrough studies; also called α-1 antitrypsin; human AAT
# T1 sequence (P01009 25-418 limits assumed): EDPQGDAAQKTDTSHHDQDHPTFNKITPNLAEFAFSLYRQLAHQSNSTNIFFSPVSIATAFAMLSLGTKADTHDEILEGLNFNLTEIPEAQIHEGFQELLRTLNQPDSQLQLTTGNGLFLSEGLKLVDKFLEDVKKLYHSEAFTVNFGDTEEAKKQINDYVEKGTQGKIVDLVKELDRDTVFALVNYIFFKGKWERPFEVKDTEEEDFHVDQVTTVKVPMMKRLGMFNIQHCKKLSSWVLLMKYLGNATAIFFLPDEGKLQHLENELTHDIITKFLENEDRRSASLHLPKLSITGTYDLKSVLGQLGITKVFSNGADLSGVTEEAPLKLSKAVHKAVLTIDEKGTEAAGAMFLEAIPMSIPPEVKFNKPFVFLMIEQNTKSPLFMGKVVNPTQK
# procedure-details: static adsorption isotherm, pure AAT in PBS pH 7.4, Langmuir fit
No end group written: not given here.
Provide the reported Qmax of each item.
Give bare numbers, in mgAAT per mLR.

Solved entries (count: 4):
FSHHSWKFG-{Toyopearl AF‑Amino‑650M resin} (not fully specified; printed as FSHHSWKFG-Toyopearl) [FSHHSWKFG-Toyopearl]    9.4
KHSKAIAAG-{Toyopearl AF‑Amino‑650M resin} (not fully specified; printed as KHSKAIAAG-Toyopearl) [KHSKAIAAG-Toyopearl]    9.1
NHNKIHG-{Toyopearl AF‑Amino‑650M resin} [NHNKIHG-Toyopearl]    6.3
WHAKKSKFG-{Toyopearl AF‑Amino‑650M resin} (not fully specified; printed as WHAKKSKFG-Toyopearl) [WHAKKSKFG-Toyopearl]    12.9

Consider the record given below.
Notebook: KWKHSHKWG-{Toyopearl AF‑Amino‑650M resin} (not fully specified; printed as KWKHSHKWG-Toyopearl) [KWKHSHKWG-Toyopearl] , Qmax read as 15.8
